measured target: TEC (Homo sapiens, UniProt P42680)
Sequence (P42680 1-631): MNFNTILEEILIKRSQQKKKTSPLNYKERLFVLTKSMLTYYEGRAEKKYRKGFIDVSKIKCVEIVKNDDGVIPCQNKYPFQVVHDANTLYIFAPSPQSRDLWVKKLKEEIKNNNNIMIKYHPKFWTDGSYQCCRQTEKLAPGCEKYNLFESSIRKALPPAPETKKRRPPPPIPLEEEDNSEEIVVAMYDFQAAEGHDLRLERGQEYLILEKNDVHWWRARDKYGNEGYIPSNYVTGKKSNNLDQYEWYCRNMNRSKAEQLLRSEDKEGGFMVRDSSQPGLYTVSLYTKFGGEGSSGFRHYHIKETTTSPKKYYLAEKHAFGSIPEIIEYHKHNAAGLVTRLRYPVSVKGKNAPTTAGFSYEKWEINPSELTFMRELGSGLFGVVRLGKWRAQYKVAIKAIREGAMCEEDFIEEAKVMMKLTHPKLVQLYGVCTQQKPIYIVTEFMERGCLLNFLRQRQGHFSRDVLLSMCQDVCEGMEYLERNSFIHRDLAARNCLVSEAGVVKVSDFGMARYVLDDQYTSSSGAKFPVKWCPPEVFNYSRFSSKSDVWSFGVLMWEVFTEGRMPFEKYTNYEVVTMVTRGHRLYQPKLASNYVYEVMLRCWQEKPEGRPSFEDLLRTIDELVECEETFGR
protocol details: Inhibition of a panel of kinases (in vitro HotSpot kinase assay, 33P-ATP, 1 μM ATP)
Assay type: biochemical
condition context: ratio of TEC IC50 to Btk IC50 (selectivity)
experimental endpoint: TEC/Btk

A = O=c1c2c(F)cc(C3CC3)cc2ccn1-c1cccc(-c2ccnc3[nH]nc(N[C@@H]4CCNC4)c23)c1CO
B = CC(C)(C)c1nc(C(=O)NCc2ccc(-c3ccnc4[nH]nc(N[C@H]5CCNC5)c34)cc2F)no1
C = C=CC(=O)N1CC[C@@H](Nc2n[nH]c3nccc(-c4ccc(NC(=O)Nc5noc(C(C)(C)C)n5)c(F)c4)c23)C1
Order field: TEC/Btk | Direction: descending (largest first) Returns: the labels listed in the requested order.
B, A, C

I = CC(C)(C)c1noc(C(=O)NCc2ccc(-c3ccnc4[nH]nc(C5CC5)c34)cc2F)n1
II = C[C@H]1CC[C@@H](Nc2n[nH]c3nccc(-c4ccc(CNC(=O)c5noc(C(C)(C)C)n5)c(F)c4)c23)CN1CC#N
In terms of reported TEC/Btk, does I or II have the smaller number? Write the label of whichever entry you select.
II
